- tested-on: HLA-A*02:03
- procedure-details: IEDB peptide-MHC binding, purified MHC/competitive/fluorescence; filed as Kd, often an IC50 or EC50 that approximates it; bounds were set here for any values at or beyond the usual limits of such assays
- recorded-conditions: source organism: Burkholderia pseudomallei K96243
pKd: −log10 of the molar value.

sequence-chain: DELWRGLLA
pKd: ≤ 4.70

* * *

- tested-on: HLA-A*01:01
- procedure-details: IEDB peptide-MHC binding, purified MHC/direct/fluorescence; filed as Kd, often an IC50 or EC50 that approximates it; bounds were set here for any values at or beyond the usual limits of such assays
- recorded-conditions: source organism: Pseudomonas putida
pKd: −log10 of the molar value.

sequence-chain: HTAEIQQFF
pKd: 6.17

* * *

- tested-on: HLA-A*24:02
- procedure-details: IEDB peptide-MHC binding, purified MHC/direct/fluorescence; filed as Kd, often an IC50 or EC50 that approximates it; bounds were set here for any values at or beyond the usual limits of such assays
- recorded-conditions: source organism: Mammarenavirus lassaense

sequence-chain: GYAWIDFDI
Kd [nM]: 3.7

* * *

- tested-on: HLA-A*32:01
- procedure-details: IEDB peptide-MHC binding, purified MHC/competitive/radioactivity; filed as Kd, often an IC50 or EC50 that approximates it; bounds were set here for any values at or beyond the usual limits of such assays
- recorded-conditions: source organism: Lymphocytic choriomeningitis virus (strain Armstrong)

sequence-chain: LQFGFGWFSY
tested-on: HLA-A*32:01
Kd: 7.32 nM

* * *

- tested-on: HLA-A*31:01
- procedure-details: IEDB peptide-MHC binding, purified MHC/competitive/radioactivity; filed as Kd, often an IC50 or EC50 that approximates it; bounds were set here for any values at or beyond the usual limits of such assays
- recorded-conditions: source organism: Vaccinia virus WR
pKd: −log10 of the molar value.
So basically: pKd at 6 or higher? That is 1. Lower than 6? That is 0.

sequence-chain: ELRRAAIDR
tested-on: HLA-A*31:01
class-name: 0

sequence-chain: PLIDIIRKR
tested-on: HLA-A*31:01
class-name: 0

sequence-chain: SSMTIREFPR
tested-on: HLA-A*31:01
class-name: 1

sequence-chain: ESRPFDLIK
tested-on: HLA-A*31:01
class-name: 0

sequence-chain: IILAALFMYY
tested-on: HLA-A*31:01
class-name: 0

sequence-chain: ETSPGEIKPK
tested-on: HLA-A*31:01
class-name: 0

sequence-chain: KVKTELVMDK
tested-on: HLA-A*31:01
class-name: 1

sequence-chain: VTRKCPQKK
tested-on: HLA-A*31:01
class-name: 1

sequence-chain: EQLSKYVEK
tested-on: HLA-A*31:01
class-name: 1

sequence-chain: VALSSLVSK
tested-on: HLA-A*31:01
class-name: 0

sequence-chain: TLITLILSNK
tested-on: HLA-A*31:01
class-name: 1

sequence-chain: FLKDDTLSK
tested-on: HLA-A*31:01
class-name: 0

sequence-chain: RALKAYFTAK
tested-on: HLA-A*31:01
class-name: 1

sequence-chain: KSMFWDGMDY
tested-on: HLA-A*31:01
class-name: 1

sequence-chain: KSRRLNLFSK
tested-on: HLA-A*31:01
class-name: 1

sequence-chain: KAIEKDRLDK
tested-on: HLA-A*31:01
class-name: 0

sequence-chain: QFIKPVSDLY
tested-on: HLA-A*31:01
class-name: 0

sequence-chain: LALTDVEKR
tested-on: HLA-A*31:01
class-name: 1

sequence-chain: KSKQDRSDGY
tested-on: HLA-A*31:01
class-name: 0

sequence-chain: SFIVPEFAK
tested-on: HLA-A*31:01
class-name: 1

sequence-chain: MMKLGISPSK
tested-on: HLA-A*31:01
class-name: 1

sequence-chain: VALYRRIQR
tested-on: HLA-A*31:01
class-name: 1

sequence-chain: VLPHLCLDYK
tested-on: HLA-A*31:01
class-name: 0

sequence-chain: HINTLIQYR
tested-on: HLA-A*31:01
class-name: 1

sequence-chain: ISDYSAEVER
tested-on: HLA-A*31:01
class-name: 0

sequence-chain: ETFKIDAVRY
tested-on: HLA-A*31:01
class-name: 0

sequence-chain: NLTDTNFKK
tested-on: HLA-A*31:01
class-name: 0

sequence-chain: KASMLEKYK
tested-on: HLA-A*31:01
class-name: 1

sequence-chain: SLTILDDNLY
tested-on: HLA-A*31:01
class-name: 0

sequence-chain: CAVHLIIYY
tested-on: HLA-A*31:01
class-name: 0

sequence-chain: VSVSDFRDY
tested-on: HLA-A*31:01
class-name: 0

sequence-chain: QFNFNGHTY
tested-on: HLA-A*31:01
class-name: 1

sequence-chain: VVVQIDPEY
tested-on: HLA-A*31:01
class-name: 0

sequence-chain: NVHEHINDQK
tested-on: HLA-A*31:01
class-name: 0

sequence-chain: ESIEDKFDY
tested-on: HLA-A*31:01
class-name: 0

sequence-chain: SSLRREHIK
tested-on: HLA-A*31:01
class-name: 1

sequence-chain: DTSEKYSKGY
tested-on: HLA-A*31:01
class-name: 0

sequence-chain: RVRRYQIAQY
tested-on: HLA-A*31:01
class-name: 0

sequence-chain: VTLFYCDER
tested-on: HLA-A*31:01
class-name: 1

sequence-chain: IITSTKTIEY
tested-on: HLA-A*31:01
class-name: 0

sequence-chain: AFLLRHYYNK
tested-on: HLA-A*31:01
class-name: 1

sequence-chain: MIKMFSQIDR
tested-on: HLA-A*31:01
class-name: 1

sequence-chain: TVNICIFYDR
tested-on: HLA-A*31:01
class-name: 1

sequence-chain: RLGLVLDDYK
tested-on: HLA-A*31:01
class-name: 0
